METHOD: HSE-luciferase reporter activators – cell-based (AID 1611)
MEASUREMENT_SETUP: human cells, HSE-luciferase heat shock reporter; stronger effect = higher value
PARAMETER_MEASURED: fold change
Just the number, please, no unit after it.

- COMPOUND: "CCCCCCCCCCCCCCCC[N+](C)(C)C"
  fold change: 0.93

Name the reported fold change value associated with the compound "CC(=O)Nc1cc([As](=O)(O)O)ccc1O" 0.73

Now give it for CC(=O)OCC1=C(C(=O)O)N2C(=O)[C@@H](NC(=O)CCCC(N)C(=O)O)C2SC1 (some centres undefined) too. 0.85

What do you have for "O=[N+]([O-])c1cc(O)c(O)c([N+](=O)[O-])c1" ? 0.87

Then this compound: "C[C@@H]1C[C@@H]([C@H](O)CC2CC(=O)NC(=O)C2)C(=O)[C@@H](C)C1" 0.84

For O=P1(N(CCCl)CCCl)NCCCO1 (centres undefined) then? 0.79

And for "CN(C)[C@@H]1C(=O)C(C(N)=O)=C(O)[C@@]2(O)C(=O)C3=C(O)c4c(O)ccc(Cl)c4[C@@](C)(O)[C@H]3C[C@@H]12" ? 0.9

These entries and their values trace back to PubChem BioAssay AID1611.
